- System Under Test: human hNET (Homo sapiens)
- Construct: expressed in transfected cells; host or cells: MDCK-Net6 (MDCK cells, stably transfected)
- Assay Procedure: Norepinephrine (NE) uptake assay in MDCK-Net6 cells
- Format: cell-based
- Experimental Conditions: 1 μM test compound, [3H]NE uptake, read-out: % Inhibition @ 1 μM (hNET)
Where a name gives a salt, the structure may show the parent alone.
Category key, based on recorded inhibition at 1 µM: lower band = under 50%, central band = from 50% up to 80%, upper band = 80% and over

Consider the following illustrative entries.
Compound | Label Value
OC1(C(CN2CCNCC2)c2ccc(-c3cc(Cl)ccc3Cl)cc2)CCCCC1 (stereo not drawn) [Example 291, dihydrochloride] | lower band
C[C@@H]1CN(CC(c2ccc(OC(F)(F)F)cc2)C2(O)CCCCC2)C[C@H](C)N1 (stereo partly drawn) [Example 288, dihydrochloride] | central band
COc1ccc(CCOc2ccc(C(CN3CCN(C)CC3)C3(O)CCCCC3)cc2)cc1 (stereo not drawn) [Example 466, dihydrochloride] | lower band

Continue with the compound presented below.
Which bin, given its inhibition at 1 µM, does C[C@H]1CN(C[C@H](c2cccc(OC(F)(F)F)c2)C2(O)CCCCC2)CCN1 [Example 348, dihydrochloride] occupy?
upper band

----------
- System Under Test: human hNET (Homo sapiens)
- Construct: expressed in transfected cells; host or cells: MDCK-Net6 (MDCK cells, stably transfected)
- Assay Procedure: Norepinephrine (NE) uptake assay in MDCK-Net6 cells
- Type: cell-based
- Experimental Conditions: 1 μM test compound, [3H]NE uptake, read-out: % Inhibition @ 1 μM (hNET)
Counter-ions that a name gives are not always drawn.
Measure Name: inhibition at 1 µM
Write your answer as a measured quantity: the number, then the unit.

A selection of reference data follows.
Molecule | inhibition at 1 µM
C[C@@H]1CN(C[C@H](c2cccc(OC(F)(F)F)c2)C2(O)CCCCC2)C[C@H](C)N1C [Example 368, dihydrochloride] | 93%
OC1(C(CN2CCNCC2)c2ccc(OCc3ccccc3)c(Cl)c2)CCCCC1 (stereo not shown) [Example 292, dihydrochloride] | 89%
CN1CCN(CC(c2ccc(OCc3cccc(C(F)(F)F)c3)c(Cl)c2)C2(O)CCCCC2)CC1 (stereo not shown) [Example 424, dihydrochloride] | 75%
CC[C@@H]1CN(C[C@H](c2cccc(OC(F)(F)F)c2)C2(O)CCCCC2)CCN1C [Example 352, dihydrochloride] | 68%
OC1(C(CN2CCNCC2)c2cccc(OCc3ccccc3)c2)CCCCC1 (stereo not shown) [Example 104, dihydrochloride] | 3%
OC1(C(CN2CCNCC2)c2ccc(OCc3ccccc3)c(F)c2)CCCCC1 (stereo not shown) [Example 413, dihydrochloride] | 76%

Supply inhibition at 1 µM value. Item: CC1(C)CCCC1(O)C(CN1CCNCC1)c1cccc(OC(F)(F)F)c1 (stereo not shown) [Example 396, dihydrochloride]
33%

Supply inhibition at 1 µM value. Item: C[C@@H](c1ccccc1)N1CCN(C[C@H](c2cccc(OC(F)(F)F)c2)C2(O)CCCCC2)CC1 [Example 363, dihydrochloride]
42%

Supply inhibition at 1 µM value. Item: CN1CCN(CC(c2ccc(OCc3ccc(Br)cc3F)c(Cl)c2)C2(O)CCCCC2)CC1 (stereo not shown) [Example 426, dihydrochloride]
84%

Supply inhibition at 1 µM value. Item: OC1(C(CN2CCNCC2)c2ccc(OCc3ccc(Br)cc3F)cc2)CCCCC1 (stereo not shown)
34%

Supply inhibition at 1 µM value. Item: C[C@@H]1CCC(O)(C(CN2CCN(C)CC2)c2cccc(OC(F)(F)F)c2)C1 (stereo partly shown) [Example 395, dihydrochloride]
92%

Supply inhibition at 1 µM value. Item: OC1(C(CN2CCNCC2)c2ccc(OCc3ccc(C(F)(F)F)cc3)c(F)c2)CCCCC1 (stereo not shown) [Example 415, dihydrochloride]
84%

----------
- System Under Test: human hNET (Homo sapiens)
- Construct: expressed in transfected cells; host or cells: MDCK-Net6 (MDCK cells, stably transfected)
- Assay Procedure: Norepinephrine (NE) uptake assay in MDCK-Net6 cells
- Type: cell-based
- Experimental Conditions: 1 μM test compound, [3H]NE uptake, read-out: % Inhibition @ 1 μM (hNET)
Structures can show the parent of a compound that is named as a salt.
Measure Name: inhibition at 1 µM (%)
Hi! Could you send only the number? It should be in %, unit omitted.

Compound | System Under Test | Measure Name | Numeric Value
OC1(C(CN2CCNCC2)c2ccc(OC(F)(F)F)cc2)CCCCC1 (centres unmarked) [Example 28, dihydrochloride] | human hNET (Homo sapiens) | inhibition at 1 µM | 80

Supply inhibition at 1 µM value. Item: C[C@@H]1CN(C[C@H](c2cccc(OC(F)(F)F)c2)C2(O)CCCCC2)CCN1C [Example 370, dihydrochloride]
79

Supply inhibition at 1 µM value. Item: OC1(C(CN2CCCN(Cc3ccccc3)CC2)c2ccc(OC(F)(F)F)cc2)CCCCC1 (centres unmarked) [Example 302, dihydrochloride]
50

Supply inhibition at 1 µM value. Item: COc1cccc(-c2cccc(C(CN3CCNCC3)C3(O)CCCCC3)c2)c1 (centres unmarked) [Example 138, dihydrochloride]
44

Supply inhibition at 1 µM value. Item: OC1(C(CN2CCNCC2)c2ccc(-c3ccccc3)cc2)CCCCC1 (centres unmarked) [Example 157, dihydrochloride]
54

Supply inhibition at 1 µM value. Item: CC(C)(CO)N1CCN(CC(c2cccc(OC(F)(F)F)c2)C2(O)CCCCC2)CC1 (centres unmarked) [Example 373, dihydrochloride]
90

Supply inhibition at 1 µM value. Item: COc1ccccc1COc1ccc(C(CN2CCNCC2)C2(O)CCCCC2)cc1Cl (centres unmarked) [Example 456, dihydrochloride]
90

Supply inhibition at 1 µM value. Item: CCC1CN(C[C@H](c2cccc(OC(F)(F)F)c2)C2(O)CCCCC2)CCN1 (some centres unmarked) [Example 350, dihydrochloride]
79

----------
- System Under Test: human hNET (Homo sapiens, UniProt P23975)
- Construct: expressed in transfected cells; host or cells: MDCK-Net6 (MDCK cells, stably transfected)
- Sequence (P23975 whole entry): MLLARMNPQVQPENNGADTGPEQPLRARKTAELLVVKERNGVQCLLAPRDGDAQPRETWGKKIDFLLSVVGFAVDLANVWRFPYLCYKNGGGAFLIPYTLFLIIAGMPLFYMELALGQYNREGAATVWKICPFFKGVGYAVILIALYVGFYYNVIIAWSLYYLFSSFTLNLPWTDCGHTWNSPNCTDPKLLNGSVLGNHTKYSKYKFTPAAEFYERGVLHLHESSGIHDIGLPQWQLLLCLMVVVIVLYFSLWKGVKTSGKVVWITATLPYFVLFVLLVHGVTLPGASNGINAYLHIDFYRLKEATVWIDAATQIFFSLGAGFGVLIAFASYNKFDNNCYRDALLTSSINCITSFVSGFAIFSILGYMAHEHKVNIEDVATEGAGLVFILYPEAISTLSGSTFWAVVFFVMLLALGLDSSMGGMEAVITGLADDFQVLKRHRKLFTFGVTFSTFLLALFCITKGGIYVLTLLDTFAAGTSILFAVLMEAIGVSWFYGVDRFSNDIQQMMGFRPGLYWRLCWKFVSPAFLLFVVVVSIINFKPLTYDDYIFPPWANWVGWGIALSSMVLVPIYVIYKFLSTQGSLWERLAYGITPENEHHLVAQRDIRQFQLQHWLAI
- Assay Procedure: Norepinephrine (NE) uptake assay in MDCK-Net6 cells
- Format: cell-based
- Experimental Conditions: 1 μM test compound, [3H]NE uptake, read-out: % Inhibition @ 1 μM (hNET)
Counter-ions that a name gives are not always drawn.
Param threshold (50%) applies to inhibition at 1 µM; output Satisfied when value >= threshold, Not satisfied when value < threshold.

Consider the following illustrative entries.
Molecule | System Under Test | Label Value
CN1CCN(CC(c2ccc(OCc3ccccc3)c(Cl)c2)C2(O)CCCCC2)CC1 (stereo not shown) [Example 293, dihydrochloride] | human hNET (Homo sapiens, UniProt P23975) | Satisfied
COc1cccc(-c2ccc(C(CN3CCNCC3)C3(O)CCCCC3)cc2)c1 (stereo not shown) [Example 170, dihydrochloride] | human hNET (Homo sapiens, UniProt P23975) | Not satisfied
OC1(C(CN2CCNCC2)c2ccc(OCCc3cccc4ccccc34)cc2)CCCCC1 (stereo not shown) [Example 464, dihydrochloride] | human hNET (Homo sapiens, UniProt P23975) | Not satisfied

Confirm if inhibition at 1 µM reported for the molecule OC1(C(CN2CCNCC2)c2ccc(-c3ccc(Cl)cc3)cc2)CCCCC1 (stereo not shown) [Example 172, dihydrochloride] is 50% or above.
Satisfied

Confirm if inhibition at 1 µM reported for the molecule CN1CCN(CC(c2ccc(OCCc3ccc(F)cc3)cc2)C2(O)CCCCC2)CC1 (stereo not shown) [Example 463, dihydrochloride] is 50% or above.
Satisfied

Confirm if inhibition at 1 µM reported for the molecule CN1CCN(CC(c2ccc(OCc3cccc(C(F)(F)F)c3)cc2)C2(O)CCCCC2)CC1 (stereo not shown) [Example 439, dihydrochloride] is 50% or above.
Satisfied
